Reference source: paper PMC9404985

EC90 values by entry
Tested on: E. coli (CCUG #67180)
Test: Antibacterial activity against isolates (Omnilog, Biolog redox dye)
Assay type: cell-based, Escherichia coli
Details: Escherichia coli, CCUG67180, 24 h, ca-MH broth, 24 h, 37 °C

MOLECULE | EC90
COC(=O)c1cc(NC(=N)N)ccc1-c1ccc(-c2ccc(NC(=N)N)cc2C(=O)OC)o1 | 67.5 µM
N=C(N)NCc1ccc(-c2ccc(-c3ccc(CNC(=N)N)cc3)o2)cc1 | > 200 µM
CO/N=C(\C(=O)N[C@@H]1C(=O)N2C(C(=O)O)=C(COC(C)=O)CS[C@H]12)c1csc(N)n1 [CTX, Cefotaxime, reference compound] | 183 µM
N=C(N)Nc1ccc(-c2ccc(C(=O)N3CCc4cc(NC(=N)N)ccc43)o2)cc1 | 19.9 µM
COc1cc(NC(=N)N)ccc1-c1ccc(-c2ccc(NC(=N)N)cc2OC)o1 | 74.4 µM
N=C(N)Nc1ccc(-c2ccc(-c3ccc(NC(=N)N)cc3Cl)o2)c(Cl)c1 | 3.8 µM
Cc1cc(NC(=N)N)ccc1-c1ccc(-c2ccc(NC(=N)N)cc2C)o1 | 25.3 µM

Request the reported EC90 associated with N=C(N)Nc1ccc(-c2ccc(C(=O)N3CCc4cc(NC(=N)N)ccc43)o2)c(Cl)c1
27.1 µM

###

System: A. baumannii (CCUG #57250)
Experiment: Antibacterial activity against isolates (Omnilog, Biolog redox dye)
Assay type: cell-based, Acinetobacter baumannii
Details: SI = ((EC50 MCF-7 + EC50 HepG2)/2)/EC50 bacterial strain
Method: The antibacterial activities of eight compounds (1, 3, 4, 6, 8, 10, 16, and 17) were tested against 10 different isolates of Gram-negative bacteria from human and other sources, two E. coli (CCUG #67180 and CCUG #17620/ATCC #25922, control strain), two K. pneumoniae (CCUG #58547 and CCUG #225T), two P. aeruginosa (CCUG #17619 and CCUG #59347), two A. baumannii (CCUG #57035 and CCUG #57250), E. cloacae (CCUG #6323T), and E. hormaechei (CCUG #58962) in a 96-well plate format. […]
METRIC NAME: Selectivity index A. baumannii (CCUG #57250)
Reply with the value as a number alone.

Example cases with answers are listed next.
CHEMICAL SMILES | MEASURED TARGET | VAL
Cc1cc(NC(=N)N)ccc1-c1ccc(-c2ccc(NC(=N)N)cc2C)o1 | A. baumannii (CCUG #57250) | 4.8
COc1cc(NC(=N)N)ccc1-c1ccc(-c2ccc(NC(=N)N)cc2OC)o1 | A. baumannii (CCUG #57250) | 19.0
N=C(N)Nc1ccc(-c2ccc(C(=O)N3CCc4cc(NC(=N)N)ccc43)o2)c(Cl)c1 | A. baumannii (CCUG #57250) | 16.7

Request the reported Selectivity index A. baumannii (CCUG #57250) associated with N=C(N)Nc1ccc(-c2ccc(C(=O)N3CCc4cc(NC(=N)N)ccc43)o2)cc1
3.1

Request the reported Selectivity index A. baumannii (CCUG #57250) associated with N=C(N)Nc1ccc(-c2ccc(-c3ccc(NC(=N)N)cc3Cl)o2)c(Cl)c1
8.7

Request the reported Selectivity index A. baumannii (CCUG #57250) associated with COC(=O)c1cc(NC(=N)N)ccc1-c1ccc(-c2ccc(NC(=N)N)cc2C(=O)OC)o1
55.3
